Data credit: ChEMBL document CHEMBL5576112

Test system: SK-MEL-5
Assay: Growth inhibition of human SK-MEL-5 cells measured after 48 hrs by sulforhodamine B assay
Format: functional
Readout name: log10(GI50) (log10 of the value in nM)
// stored as log10 of GI50 expressed in nM

Query: Quick check: log10(GI50) of COc1ccc(/C=N/NC(=O)c2[nH]c3ccc(Br)cc3c2-c2ccccc2)s1 ?
Reply: 1.72

Query: Follow-up item: COc1ccc(/C=N/NC(=O)c2[nH]c3ccc(Br)cc3c2-c2ccccc2)o1
Reply: 2.14

Query: Next record, please: N#Cc1ccc(/C=N/NC(=O)c2[nH]c3ccc(Br)cc3c2-c2ccccc2)s1
Reply: 2.09

Query: Same thing, different molecule: N#Cc1ccc(/C=N/NC(=O)c2[nH]c3ccc(Br)cc3c2-c2ccccc2)o1
Reply: 2.36

Query: Try this molecule next: COc1csc(/C=N/NC(=O)c2[nH]c3ccc(Br)cc3c2-c2ccccc2)c1
Reply: 1.27

Query: Follow-up entry: O=C(N/N=C/c1ccc([N+](=O)[O-])o1)c1[nH]c2ccc(Br)cc2c1-c1ccccc1
Reply: 2.33

Query: Also check COc1ccsc1/C=N/NC(=O)c1[nH]c2ccc(Br)cc2c1-c1ccccc1
Reply: 2.51

Query: Similarly, O=C(N/N=C/c1ccco1)c1[nH]c2ccc(Br)cc2c1-c1ccccc1 ?
Reply: 1.95

Query: # iterate: O=C(N/N=C/c1ccc([N+](=O)[O-])s1)c1[nH]c2ccc(Br)cc2c1-c1ccccc1
Reply: 2.33
